system: Enterococcus faecalis; test: Antibacterial activity against Enterococcus faecalis ATCC 29212 after 16 to 20 hrs by broth microdilution method; format: functional
Kindly supply the reported MIC values for the records listed here.

Please review the entries below; each comes with its answer.
COMPOUND	MIC
CC(C)C(O)C(=O)Cc1c[nH]c2ccccc12 (single isomer, unassigned; (+))	> 80 µg/mL
CC(=O)OC(Cc1c[nH]c2ccccc12)C(=O)C(C)C (stereo not given)	> 80 µg/mL
O=C(O)c1cn(C2CC2)c2cc(N3CCNCC3)c(F)cc2c1=O	1.9 µg/mL
CC(C)C(=O)C(O)Cc1c[nH]c2ccccc12 (single isomer, unassigned; (+))	> 80 µg/mL

Let us move to another entry and its MIC.
Memo: CC(=O)OC(C(=O)Cc1c[nH]c2ccccc12)C(C)C (stereo not given) , reported MIC: > 80 µg/mL
